- Measurement Target: human α4β2δ GABAA receptors (Homo sapiens, UniProt P47870+P48169)
- Construct: expressed in transfected cells; host or cells: Xenopus laevis oocytes injected with cRNA, 5:1:5 (α4:β2:δ)
- Sequence (P48169 36-554): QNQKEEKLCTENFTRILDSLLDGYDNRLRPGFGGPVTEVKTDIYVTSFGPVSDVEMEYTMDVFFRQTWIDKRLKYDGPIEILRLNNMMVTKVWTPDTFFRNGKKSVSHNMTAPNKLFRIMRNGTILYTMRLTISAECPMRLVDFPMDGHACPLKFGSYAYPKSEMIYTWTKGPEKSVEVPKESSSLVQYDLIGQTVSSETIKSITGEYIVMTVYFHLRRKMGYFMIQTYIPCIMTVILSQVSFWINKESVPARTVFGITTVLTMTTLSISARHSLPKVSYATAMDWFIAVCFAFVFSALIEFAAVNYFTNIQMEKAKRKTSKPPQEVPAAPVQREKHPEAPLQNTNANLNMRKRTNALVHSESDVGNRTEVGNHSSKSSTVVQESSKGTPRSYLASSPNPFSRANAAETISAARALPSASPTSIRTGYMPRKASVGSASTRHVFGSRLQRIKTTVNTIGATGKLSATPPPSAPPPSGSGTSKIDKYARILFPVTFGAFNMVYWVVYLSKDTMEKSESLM
- Sequence (P47870 25-512 limits assumed): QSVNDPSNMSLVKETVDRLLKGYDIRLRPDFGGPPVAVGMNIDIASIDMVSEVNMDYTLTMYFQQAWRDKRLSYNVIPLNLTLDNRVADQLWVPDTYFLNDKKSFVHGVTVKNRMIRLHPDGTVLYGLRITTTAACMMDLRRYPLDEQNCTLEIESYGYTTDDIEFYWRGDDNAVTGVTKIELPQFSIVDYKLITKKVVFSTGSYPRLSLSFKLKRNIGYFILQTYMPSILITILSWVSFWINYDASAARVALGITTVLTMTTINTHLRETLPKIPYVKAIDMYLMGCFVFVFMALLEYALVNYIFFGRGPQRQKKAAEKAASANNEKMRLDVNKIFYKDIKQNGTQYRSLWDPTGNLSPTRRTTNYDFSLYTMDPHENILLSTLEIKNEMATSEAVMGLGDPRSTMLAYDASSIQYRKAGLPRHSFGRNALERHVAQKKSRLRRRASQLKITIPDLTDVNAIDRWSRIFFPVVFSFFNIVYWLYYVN
- Sequence (O14764 25-452 partner): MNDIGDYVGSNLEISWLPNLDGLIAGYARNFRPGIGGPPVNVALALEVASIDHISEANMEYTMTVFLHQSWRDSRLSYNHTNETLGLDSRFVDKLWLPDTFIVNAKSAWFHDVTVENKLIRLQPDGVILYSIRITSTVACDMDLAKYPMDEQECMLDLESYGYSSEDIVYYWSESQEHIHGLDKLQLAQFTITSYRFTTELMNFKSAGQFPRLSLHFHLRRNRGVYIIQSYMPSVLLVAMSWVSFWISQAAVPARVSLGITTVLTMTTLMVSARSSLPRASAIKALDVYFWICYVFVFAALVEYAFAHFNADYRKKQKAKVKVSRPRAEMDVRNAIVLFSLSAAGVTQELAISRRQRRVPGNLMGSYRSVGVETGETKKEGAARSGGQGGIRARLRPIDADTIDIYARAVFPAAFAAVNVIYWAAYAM
- Assay Explanation: two-electrode voltage clamp of α4β2δ GABAA receptors expressed in Xenopus laevis oocytes (RAD model analysis)
- Assay type: cell-based
Result Type: Kd (µM)
Expressed in µM, but write only the number.

Entry under review: CC(=O)[C@H]1CC[C@H]2[C@@H]3CC[C@H]4C[C@H](O)CC[C@]4(C)[C@H]3CC[C@]12C [3α5αP, allopregnanolone] . Reported Kd?
0.21

* * *

- Measurement Target: human α4β2δ GABAA receptors (Homo sapiens, UniProt P47870+P48169)
- Construct: expressed in transfected cells; host or cells: Xenopus laevis oocytes injected with cRNA, 5:1:5 (α4:β2:δ)
- Assay Explanation: two-electrode voltage clamp of α4β2δ GABAA receptors expressed in Xenopus laevis oocytes (RAD model analysis)
- Assay type: cell-based
- Measurement Setup: EC50, peak currents, Hill equation, mean ± S.D.
- Description: The human α4β2δ GABAA receptors were expressed in Xenopus laevis oocytes. Harvesting of oocytes was conducted under the Guide for the Care and Use of Laboratory Animals as adopted and promulgated by the National Institutes of Health. […] In such cases, the number of cell provided is given as a range of cell numbers for each concentration point. […] The level of constitutive activity was determined by exposing the cells to 100–300 μM picrotoxin. […]
Result Type: EC50 (µM)
Expressed in µM, but write only the number.

Entry under review: `CC(=O)[C@H]1CC[C@H]2[C@@H]3CC[C@H]4C[C@H](O)CC[C@]4(C)[C@H]3CC[C@]12C` . Reported EC50?
0.23

Next:
Entry under review: `CC(C)c1cccc(C(C)C)c1O` . Reported EC50?
7.3

* * *

- Measurement Target: human α4β2δ GABAA receptors (Homo sapiens, UniProt P47870+P48169)
- Construct: expressed in transfected cells; host or cells: Xenopus laevis oocytes injected with cRNA, 5:1:5 (α4:β2:δ)
- Assay Explanation: two-electrode voltage clamp of α4β2δ GABAA receptors expressed in Xenopus laevis oocytes (RAD model analysis)
- Assay type: cell-based
- Measurement Setup: peak currents, mean ± S.D.
- Experimental: The human α4β2δ GABAA receptors were expressed in Xenopus laevis oocytes. Harvesting of oocytes was conducted under the Guide for the Care and Use of Laboratory Animals as adopted and promulgated by the National Institutes of Health. […] In such cases, the number of cell provided is given as a range of cell numbers for each concentration point. […] The level of constitutive activity was determined by exposing the cells to 100–300 μM picrotoxin. […]
Result Type: Hill coefficient
Lab note: jot the number down without any unit.

Entry under review: `CC(=O)[C@H]1CC[C@H]2[C@@H]3CC[C@H]4C[C@H](O)CC[C@]4(C)[C@H]3CC[C@]12C` . Reported Hill coefficient?
1.17

// repeat for `CC(C)c1cccc(C(C)C)c1O` and report
2.17

// repeat for `NCCS(=O)(=O)O` and report
0.70

Next:
Entry under review: `NCCCC(=O)O` . Reported Hill coefficient?
0.80
